# assayedSystem: T1, Human CXCR2 (human, UniProt P25025 1-360)
# T1 sequence: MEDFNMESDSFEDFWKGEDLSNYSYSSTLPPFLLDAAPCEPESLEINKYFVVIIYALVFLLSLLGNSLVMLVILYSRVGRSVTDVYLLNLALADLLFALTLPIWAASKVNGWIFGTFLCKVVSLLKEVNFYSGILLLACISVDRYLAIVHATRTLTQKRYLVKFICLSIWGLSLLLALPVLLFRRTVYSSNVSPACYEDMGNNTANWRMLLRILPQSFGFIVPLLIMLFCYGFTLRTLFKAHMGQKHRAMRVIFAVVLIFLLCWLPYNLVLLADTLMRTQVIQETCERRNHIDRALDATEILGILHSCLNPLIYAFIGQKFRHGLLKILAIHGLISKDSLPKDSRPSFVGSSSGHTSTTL
# assayMethodText: cell-based or functional assay
measuredAttribute: HumanWBSC IC50 (rhGROα) (nM)

Worked examples follow.
- binder: "54B12 (VHH, not shown: small tags and cut ends) VHH: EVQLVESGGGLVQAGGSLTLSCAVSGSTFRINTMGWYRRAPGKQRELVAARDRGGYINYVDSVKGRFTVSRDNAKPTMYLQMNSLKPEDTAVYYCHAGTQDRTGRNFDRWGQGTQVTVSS"
  readingUnit: "nM"
  resultValue: 19.7
- binder: "163E03 (VHH, not shown: small tags and cut ends) VHH: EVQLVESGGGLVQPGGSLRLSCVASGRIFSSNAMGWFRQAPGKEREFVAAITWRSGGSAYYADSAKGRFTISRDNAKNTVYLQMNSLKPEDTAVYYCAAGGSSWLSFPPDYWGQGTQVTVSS"
  readingUnit: "nM"
  resultValue: 9.4
- binder: "127D01 (VHH, not shown: small tags and cut ends) VHH: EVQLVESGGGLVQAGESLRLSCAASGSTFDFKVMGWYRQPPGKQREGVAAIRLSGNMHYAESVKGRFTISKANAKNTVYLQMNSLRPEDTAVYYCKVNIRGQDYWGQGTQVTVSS"
  readingUnit: "nM"
  resultValue: 4.9
- binder: "097A09 (VHH, not shown: small tags and cut ends) VHH: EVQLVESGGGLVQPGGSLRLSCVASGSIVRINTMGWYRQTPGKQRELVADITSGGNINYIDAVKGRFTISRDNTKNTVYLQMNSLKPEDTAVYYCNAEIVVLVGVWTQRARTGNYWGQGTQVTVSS"
  readingUnit: "nM"
  resultValue: 11.6

1. 2B2 (VHH, not shown: small tags and cut ends) VHH: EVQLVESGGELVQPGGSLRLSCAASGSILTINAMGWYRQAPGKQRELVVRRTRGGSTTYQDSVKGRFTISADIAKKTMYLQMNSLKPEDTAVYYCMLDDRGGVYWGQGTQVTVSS
2. 163D02 (VHH, not shown: small tags and cut ends) VHH: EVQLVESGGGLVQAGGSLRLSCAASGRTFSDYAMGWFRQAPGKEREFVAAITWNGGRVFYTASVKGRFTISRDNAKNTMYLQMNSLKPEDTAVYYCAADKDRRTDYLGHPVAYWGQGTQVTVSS
# argmax over HumanWBSC IC50 (rhGROα) for candidates 1 and 2 # answer = label of selected item
1
